Where a name gives a salt, the structure may show the parent alone.
Reported melting point values follow for various compounds

**Query** Given the compound CC(C)Cc1nc(N2CCCCC2)c2[nH]c(-c3ccccc3)cc2n1 (as salt: hydrochloride) (hydrate or solvate) , what is its reported melting point?
**Result** 226 to 229.5 °C

**Query** Please give the measured melting point for this compound: CCCc1nc(N2CCCCC2)c2[nH]c(-c3ccccc3)cc2n1 (as salt: hydrochloride) (hydrate or solvate) [Example 196c, Hydrochloride Monohydrate]
**Result** 258 to 262.5 °C

**Query** Entry Cc1nc(N2CCCCC2)c2[nH]c(C(C)(C)C)cc2n1.Cl (hydrate or solvate) : reported melting point = ?
**Result** 256 to 258 °C

**Query** Request the reported melting point associated with CC(C)c1nc(N2CCCCC2)c2[nH]c(-c3ccccc3)cc2n1 [Example 19d]
**Result** 269.5 to 272 °C

----------
Counter-ions that a name gives are not always drawn.
endpoint label: melting point

Worked cases, melting point given:
Cc1nc(N2CCCCC2)c2[nH]c(-c3ccc(F)c(F)c3)cc2n1.Cl (hydrate or solvate); 243 to 245 °C
COc1ccccc1-c1cc2nc(C)nc(N3CCCCC3)c2[nH]1.Cl (hydrate or solvate); 261 to 263 °C
Cl.c1ccc(-c2cc3nc(C4CC4)nc(N4CCCCC4)c3[nH]2)cc1 [Example 69c]; 285.4 to 286 °C (dec.)

Okay, next one:
**Query** Name the recorded melting point for Cc1nc(N2CCc3ccccc3C2)c2sc(-c3ccccc3)cc2n1 (as salt: hydrochloride) (hydrate or solvate) [Example 221b, Hydrochloride Hydrate] .
**Result** 263 to 265 °C

----------
Where a name gives a salt, the structure may show the parent alone.
endpoint label: melting point

// below: answered compounds
Cc1nc(N2CCCCC2)c2[nH]c(-c3cc(F)c(F)c(F)c3)cc2n1.Cl (hydrate or solvate); > 280 °C
COc1ccc(-c2[nH]c3c(N4CCCCC4)nc(C)nc3c2C)cc1.Cl; > 280 °C
Cc1nc(N2CCCCC2)c2sc(-c3ccc(F)cc3)cc2n1 (as salt: hydrochloride) (hydrate or solvate) [Example 217, Hydrochloride Hydrate]; 285 to 287 °C

**Query** Endpoint output: melting point of Cc1nc(N2CCCCC2)c2[nH]c(-c3ccc(Cl)cc3)cc2n1.Cl [Example 92d] . Value?
**Result** 253.8 to 255.2 °C (dec.)

**Query** melting point lookup needed for Cl.c1cnc(-c2cc3ncnc(N4CCCCC4)c3[nH]2)cn1 (hydrate or solvate) , thanks.
**Result** > 280 °C

**Query** Please look up its melting point: Cc1nc(N2CCCCC2)c2[nH]c(CCc3ccccc3)cc2n1.Cl (hydrate or solvate)
**Result** 236 to 238 °C

**Query** Look at this compound and give its reported melting point. COc1ccc(-c2cc3nc(C)nc(N4CCCCC4)c3[nH]2)cc1F.Cl (hydrate or solvate)
**Result** 262 to 264 °C

----------
endpoint label: melting point

**Query** Need melting point, item Cc1nc(N2CCN(c3ccccc3)CC2)c2[nH]c(-c3ccccc3)cc2n1.Cl (hydrate or solvate)
**Result** 232 to 234.5 °C

**Query** # get_value(readout='melting point', item= `Cc1c(-c2ccccc2)n(C)c2c(N3CCCCC3)ncnc12` )
**Result** 123 to 125 °C

**Query** // query melting point value for entry Cc1nc(N2CCC2)c2[nH]c(-c3ccccc3)cc2n1.Cl (hydrate or solvate)
**Result** > 300 °C (dec.)

**Query** Recorded melting point for COc1cccc2cc(-c3cc4nc(C)nc(N5CCCCC5)c4[nH]3)oc12.Cl (hydrate or solvate) , please?
**Result** > 280 °C

**Query** Suppose we examine the molecule Cc1nc(N2CCCCC2)c2[nH]c(-c3cc(F)cc(F)c3)c(C)c2n1.Cl (hydrate or solvate) ; what melting point value has been reported?
**Result** 242 to 245 °C

**Query** For Cc1nc(N2CCCCC2)c2[nH]c(-c3ccc4c(c3)CCCC4)cc2n1.Cl (hydrate or solvate) , what is its reported melting point?
**Result** 175 to 177 °C

**Query** Look at this molecule and give its reported melting point. Cc1nc(N2CCN(S(=O)(=O)c3cccc4ccccc34)CC2)c2[nH]c(-c3ccccc3)cc2n1.Cl (hydrate or solvate)
**Result** 195 °C (dec.)

**Query** Dear colleague, I am looking for the recorded melting point of the following molecule: `Cc1nc(N2CCCCC2)c2[nH]c(-c3ccccc3)c(F)c2n1.Cl`
**Result** > 280 °C
